Hi there, I'd appreciate the recorded pIC50 for every entry that follows.
- measuredOn: αvβ1 (UniProt G3HZ55+P06756)
- Sequence (P06756 31-889 limits assumed): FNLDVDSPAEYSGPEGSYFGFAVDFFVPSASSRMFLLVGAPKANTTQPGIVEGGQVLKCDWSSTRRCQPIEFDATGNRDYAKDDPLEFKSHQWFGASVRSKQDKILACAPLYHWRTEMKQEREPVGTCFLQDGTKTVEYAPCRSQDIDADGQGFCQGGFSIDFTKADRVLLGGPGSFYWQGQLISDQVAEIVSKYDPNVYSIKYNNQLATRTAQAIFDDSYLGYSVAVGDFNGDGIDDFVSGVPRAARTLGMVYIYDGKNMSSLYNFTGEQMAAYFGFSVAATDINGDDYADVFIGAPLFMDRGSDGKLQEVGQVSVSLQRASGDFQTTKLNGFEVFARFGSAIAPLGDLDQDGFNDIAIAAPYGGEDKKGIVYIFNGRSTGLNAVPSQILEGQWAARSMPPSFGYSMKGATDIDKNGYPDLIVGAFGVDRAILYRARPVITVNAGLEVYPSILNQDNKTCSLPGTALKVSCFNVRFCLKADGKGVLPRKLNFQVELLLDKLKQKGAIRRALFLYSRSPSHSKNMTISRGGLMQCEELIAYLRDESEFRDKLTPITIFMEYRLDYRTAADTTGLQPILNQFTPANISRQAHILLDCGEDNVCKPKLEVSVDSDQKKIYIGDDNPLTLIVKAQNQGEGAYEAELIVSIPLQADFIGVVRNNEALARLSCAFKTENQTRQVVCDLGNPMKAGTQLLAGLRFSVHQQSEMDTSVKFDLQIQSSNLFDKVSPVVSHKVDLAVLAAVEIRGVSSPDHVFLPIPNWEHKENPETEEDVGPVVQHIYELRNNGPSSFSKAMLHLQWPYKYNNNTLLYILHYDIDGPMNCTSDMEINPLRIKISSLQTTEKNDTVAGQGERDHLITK
- Sequence (P06756 891-1048 limits assumed): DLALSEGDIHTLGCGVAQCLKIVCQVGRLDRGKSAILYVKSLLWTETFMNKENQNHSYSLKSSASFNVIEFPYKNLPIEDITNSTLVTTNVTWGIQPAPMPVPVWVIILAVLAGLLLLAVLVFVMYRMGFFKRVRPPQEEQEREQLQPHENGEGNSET
- Sequence (G3HZ55 21-798): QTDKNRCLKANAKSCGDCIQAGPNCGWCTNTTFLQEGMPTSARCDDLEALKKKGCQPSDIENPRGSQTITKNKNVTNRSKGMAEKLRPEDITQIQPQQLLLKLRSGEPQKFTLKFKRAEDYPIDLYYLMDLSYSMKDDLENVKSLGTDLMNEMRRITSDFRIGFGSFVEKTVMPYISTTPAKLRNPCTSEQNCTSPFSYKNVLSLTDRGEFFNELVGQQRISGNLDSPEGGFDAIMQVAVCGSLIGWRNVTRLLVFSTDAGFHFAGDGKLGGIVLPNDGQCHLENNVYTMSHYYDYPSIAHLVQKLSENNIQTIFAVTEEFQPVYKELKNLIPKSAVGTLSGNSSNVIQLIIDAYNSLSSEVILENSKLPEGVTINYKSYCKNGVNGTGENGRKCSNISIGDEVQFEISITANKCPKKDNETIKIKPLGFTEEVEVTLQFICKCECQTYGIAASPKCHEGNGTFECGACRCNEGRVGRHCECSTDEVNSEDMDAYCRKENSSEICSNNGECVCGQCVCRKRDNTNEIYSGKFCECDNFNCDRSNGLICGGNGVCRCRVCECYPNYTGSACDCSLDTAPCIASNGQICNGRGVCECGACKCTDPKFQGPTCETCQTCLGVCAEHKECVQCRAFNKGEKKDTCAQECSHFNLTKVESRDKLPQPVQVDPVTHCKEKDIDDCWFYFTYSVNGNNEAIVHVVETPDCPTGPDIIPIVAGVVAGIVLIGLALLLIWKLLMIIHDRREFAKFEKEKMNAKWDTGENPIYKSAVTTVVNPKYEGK
- methodNotes: αvβ1 cell adhesion inhibition test (αv-transfected CHO cells on human fibronectin)
- conditionLabel: human fibronectin coating, 1 mM MnCl2, 1 hour, read-out: IC50 (rate of inhibition of cell adhesion, αvβ1)
pIC50: −log10 of the molar value.

Item: O=C(O)C[C@H](NC(=O)CNC(=O)c1cc(NC2=NCC(F)CN2)c2c(Cl)n[nH]c2c1)c1cc(Cl)cc(C(F)(F)F)c1 (stereo partly drawn) Test system: αvβ1 (UniProt G3HZ55+P06756) Read-out: pIC50 Value: ? > 8.52

Item: O=C(O)C[C@H](NC(=O)CNC(=O)c1cc(NC2=NCC(F)CN2)cc2[nH]ncc12)c1cc(I)cc(C(F)(F)F)c1 (stereo partly drawn) Test system: αvβ1 (UniProt G3HZ55+P06756) Read-out: pIC50 Value: ? > 8.52

Item: O=C(O)C[C@H](NC(=O)CNC(=O)c1cc(NC2=NCC(F)CN2)cc2[nH]ncc12)c1cc(Cl)cc(C(F)(F)F)c1 (stereo partly drawn) Test system: αvβ1 (UniProt G3HZ55+P06756) Read-out: pIC50 Value: ? > 8.52
